Tested on: CAKI-1
Measurement notes: NCI tumour cell line growth inhibition, 48 h
Calls of active or inactive are those of the source. Cut-off read from the data, not from the text of the source: active = GI50 up to about 1.1 µM and inactive = higher. Square brackets hold non-standard residues; d marks the D form. Peptide text beside a SMILES is read from it. pGlu = O=C1CC[C@@H](C(=O)O)N1; Thz = O=C(O)[C@@H]1CSCN1
Result category, one only: active, inactive

Could you kindly confirm the outcome this assay logged for COc1ccc(/C(=N\NC(=S)NN)C(c2ccc(OC)cc2)C2C(=O)Oc3ccccc32)cc1 (stereo not given) ?
inactive

Could you kindly confirm the outcome this assay logged for c1ccc(C(=NNc2nc3ccccc3o2)c2ccccn2)nc1 ?
active

Could you kindly confirm the outcome this assay logged for NNC(=O)C(=O)NN=C(C(Cl)(Cl)CO)C(Cl)(Cl)CO ?
inactive

Could you kindly confirm the outcome this assay logged for O=c1cc(-c2ccccc2)[nH]c2ccc(N3CCOCC3)cc12 ?
active

Could you kindly confirm the outcome this assay logged for CCO/C(=N/S(=O)(=O)C(F)(F)F)N(C(C)C)C(C)C ?
inactive

Could you kindly confirm the outcome this assay logged for O=C(/C=C/c1ccc(OCc2ccccc2)cc1)NCc1ccc(C(=O)NCc2ccccc2)cc1 ?
inactive

Could you kindly confirm the outcome this assay logged for O=C1CC[C@@H](C(=O)N2CSC[C@H]2C(=O)O)N1 [PIDOTIMOD] ([pGlu]-[Thz]-OH) ?
inactive

Could you kindly confirm the outcome this assay logged for COC(=O)C1=C(C(=O)OC)N(c2ccncc2)C(c2ccco2)=CC1c1ccccc1[N+](=O)[O-] (stereo not given) ?
inactive

Could you kindly confirm the outcome this assay logged for O=c1[nH]c2cc(C(F)(F)F)ccc2nc1CBr ?
inactive

Could you kindly confirm the outcome this assay logged for Cc1ccc2c(c1)NC(=O)C(N=[N+]=[N-])(c1ccccc1)C2=O (stereo not given) ?
inactive
